Sourced from patent US20240309103A1

Below: a set of entries, each annotated with reported 100 nM Ag Bound (RU).
- tested.on: mNPR1-mFc:hANP complex (mouse; human) (UniProt P01160)
- assay.comment: SPR Biacore, mAb captured by anti-human Fc, 37C

binder | 100 nM Ag Bound (RU)
mAb22033 (antibody, human IgG4, V domains shown) VH: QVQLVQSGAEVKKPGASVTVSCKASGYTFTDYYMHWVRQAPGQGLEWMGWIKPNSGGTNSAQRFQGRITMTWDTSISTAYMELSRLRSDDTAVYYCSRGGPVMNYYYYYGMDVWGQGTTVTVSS VL: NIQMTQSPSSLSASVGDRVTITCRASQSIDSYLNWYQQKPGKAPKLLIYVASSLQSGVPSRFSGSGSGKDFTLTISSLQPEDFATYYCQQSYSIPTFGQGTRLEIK | 2 RU

Now consider a different binder.
Q: Which 100 nM Ag Bound (RU) reading was recorded for the binder mAb25502 (antibody, human IgG4, V domains shown) VH: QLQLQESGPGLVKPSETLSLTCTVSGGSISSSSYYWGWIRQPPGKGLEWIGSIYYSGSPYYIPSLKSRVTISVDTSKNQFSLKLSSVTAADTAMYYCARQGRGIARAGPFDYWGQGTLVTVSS VL: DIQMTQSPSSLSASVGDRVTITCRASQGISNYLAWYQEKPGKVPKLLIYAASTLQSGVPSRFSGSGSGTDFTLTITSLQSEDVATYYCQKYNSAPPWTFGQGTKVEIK ?
A: 35 RU
